System: Saccharomyces cerevisiae;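 further: PSI is a weighted mean of sequencing reads over stability bins, variants kept only with over 10 reads, mCherry proximal and sfGFP distal, peptide attached via GGGS linker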
Assay: protein stability index of tFT-peptide fusion (C-terminal peptide) (PSI (0-1 scale)); higher = more stable (slower turnover)
Conditions: genetic background: wild type; temperature: 30 C
Parameter: protein stability index. Scope: all listed entries.
parameter-measured: protein stability index

[[record]]
chain = "EGKPALANSTVR"
number = 0.712

[[record]]
chain = "KHTGTGNAPNCD"
number = 0.754

[[record]]
chain = "SPGSSIFLYFFT"
number = 0.729

[[record]]
chain = "GTTNRMVTQKGF"
number = 0.712

[[record]]
chain = "ISGDGWNFVGIV"
number = 0.715

[[record]]
chain = "ERCLRYRTVVDW"
number = 0.632

[[record]]
chain = "GRVGCGRNRLWS"
number = 0.67

[[record]]
chain = "PLPPPPPDILTP"
number = 0.743

[[record]]
chain = "LPPFPRPPPPSP"
number = 0.719

[[record]]
chain = "PPPPLSPPPPRP"
number = 0.693

[[record]]
chain = "PLPFPLLPPPPH"
number = 0.705

[[record]]
chain = "GLFPGSRLRLVE"
number = 0.666

[[record]]
chain = "EVSHLGLVCGHL"
number = 0.653

[[record]]
chain = "VFLSLLYWSPIG"
number = 0.643

[[record]]
chain = "VLLLRPTPPLFH"
number = 0.663

[[record]]
chain = "ASTCLKFTPTIF"
number = 0.883

[[record]]
chain = "DLGSFVNSGWVT"
number = 0.706

[[record]]
chain = "SIDKINKLTPDV"
number = 0.648

[[record]]
chain = "GGRGGRSGTEGE"
number = 0.676

